These entries and their values trace back to the supplement of paper PMC12494721.

tested on: Clostridium sporogenes DSM 1664; assay: growth (OD595) fold change vs plate DMSO controls (fold change (ratio)); higher = more growth; details: incubation time: 27 h, anaerobic, 37 °C
reportedMetric: growth
Numbers only.

Solved entries:
# molecule, reportedMetric, observedValue
records = [
    ("Cc1ccnc(NS(=O)(=O)c2ccc(N)cc2)n1 [Sulfamerazine] (20 µM)", "growth", 0.951),
    ("CC(C)COC(=O)OCN1C(=O)CN(CCN2CC(=O)N(COC(=O)OCC(C)C)C(=O)C2)CC1=O [Sobuzoxane] (20 µM)", "growth", 0.986),
    ("COc1ncnc(NS(=O)(=O)c2ccc(N)cc2)c1OC [Sulfadoxine] (20 µM)", "growth", 1),
    ("C1N2CN3CN1CN(C2)C3 [Methenamine] (20 µM)", "growth", 0.885),
    ("Cc1cccc(N(C)C(=S)Oc2ccc3ccccc3c2)c1 [Tolnaftate] (20 µM)", "growth", 1.02),
    ("CCCCOC(=O)c1ccccc1Nc1cccc(C(F)(F)F)c1 [Ufenamate] (20 µM)", "growth", 0.986),
    ("O=C(O)c1cccnc1Nc1cccc(C(F)(F)F)c1 [Niflumic acid] (20 µM)", "growth", 0.913),
    ("CC(C)(C#N)c1cc(Cn2cncn2)cc(C(C)(C)C#N)c1 [Anastrozole] (20 µM)", "growth", 0.911),
]

# ---- query molecule ----
Ask | Item under review: CN1CCN(c2c(F)cc3c(=O)c(C(=O)O)cn4c3c2SCC4)CC1 [Rufloxacin] (20 µM) . Reported growth?
Reply | 0.0133

----------
test system: Clostridium sporogenes DSM 1664; experiment: fold change of Tryptamine concentration vs plate DMSO controls (fold change (ratio)); higher = more amine produced, active = hit call of the paper (significant change in both replicates, either direction); conditions: incubation time: 27 h, anaerobic, 37 °C
Structures can show the parent of a compound that is named as a salt.
Class (required): determined from fold change of Tryptamine concentration; valid ranges are 1 = under 0.9, 2 = from 0.9 up to 1, 3 = 1 and over

Known results for molecules:
# molecule, category
data = [
    ("CC(=O)N(O)CCCCCNC(=O)CCC(=O)N(O)CCCCCNC(=O)CCC(=O)N(O)CCCCCN [Deferoxamine mesylate] (20 µM)", 3),
    ("CC1(C)S[C@@H]2[C@H](NC(=O)Cc3ccccc3)C(=O)N2[C@H]1C(=O)O [Benzylpenicillin sodium] (20 µM)", 1),
    ("CN(C)[C@@H]1C(=O)C(C(N)=O)=C(O)[C@@]2(O)C(=O)C3=C(O)c4c(O)ccc(Cl)c4[C@@H](O)[C@H]3C[C@@H]12 [Demeclocycline hydrochloride] (20 µM)", 1),
    ("CC[C@H](c1ccc(O)cc1)[C@@H](CC)c1ccc(O)cc1 [Hexestrol] (20 µM)", 1),
    ("COc1cc(C(=O)OCCCN2CCCN(CCCOC(=O)c3cc(OC)c(OC)c(OC)c3)CC2)cc(OC)c1OC [Dilazep dihydrochloride] (20 µM)", 3),
    ("CC(=O)Nc1c(I)c(NC(C)=O)c(I)c(C(=O)O)c1I [Diatrizoic acid dihydrate] (20 µM)", 2),
]

Ask | Could you tell me which band NC(=O)NS(=O)(=O)c1ccc(N)cc1 [Sulfacarbamide] (20 µM) belongs to?
Reply | 2

Ask | Class (by measured fold change of Tryptamine concentration) for CCOc1ccc(Cc2nccc3cc(OCC)c(OCC)cc23)cc1OCC [Ethaverine hydrochloride] (20 µM)
Reply | 2

Ask | Which class does O=C(Oc1ccccc1)c1ccccc1O [Phenyl salicylate] (20 µM) fall in?
Reply | 3
